Biological target: Human M4 receptors (Homo sapiens, UniProt P08173)
Sequence (P08173 whole entry): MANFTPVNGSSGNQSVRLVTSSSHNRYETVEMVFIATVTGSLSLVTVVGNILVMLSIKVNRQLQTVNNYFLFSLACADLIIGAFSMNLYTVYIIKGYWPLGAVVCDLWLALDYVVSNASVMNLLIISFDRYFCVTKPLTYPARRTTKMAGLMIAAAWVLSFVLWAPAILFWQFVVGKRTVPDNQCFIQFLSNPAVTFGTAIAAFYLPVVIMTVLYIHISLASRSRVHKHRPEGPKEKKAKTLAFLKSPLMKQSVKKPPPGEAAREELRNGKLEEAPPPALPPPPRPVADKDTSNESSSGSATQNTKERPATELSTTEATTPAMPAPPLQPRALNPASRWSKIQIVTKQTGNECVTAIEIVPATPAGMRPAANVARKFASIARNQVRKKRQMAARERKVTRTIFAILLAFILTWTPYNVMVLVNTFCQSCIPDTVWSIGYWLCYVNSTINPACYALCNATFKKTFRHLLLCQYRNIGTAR
Experiment: M4 PAM cAMP assay (GloSensor)
Conditions: HEK293 GloSensor cells expressing hM4; with EC20 acetylcholine and isoproterenol; geometric mean of 2-4 determinations unless footnoted (b: >=5, c: single)
pEC50: −log10 of the molar value.
reportedMetric: pEC50

a = COCc1nc(C)c(C)c2c1CN(C(=O)CC1CN(c3cccnc3)C1)C2
b = Cc1nc(N)c2c(c1C)CN(C(=O)C[C@@H]1C[C@H]1c1ccc(F)nc1)C2 (single isomer, unassigned) [Example 8]
c = Cc1nc(C)c2c(c1C)CN(C(=O)CC1CN(c3cccnc3)C1)C2
d = CNc1nc(C)c(C)c2c1CN(C(=O)C[C@@H]1C[C@H]1c1cncnc1)C2 (single isomer, unassigned) [Example 29]
Arrange items by their pEC50 values in increasing order. Put the labels in the order asked and list them.
d, a, c, b
(d: 6.16, a: 6.82, c: 7.70, b: 8.91)

----------
Entries annotated with measured EC50 Mean Asymptote Maximum (%)
Molecular target: Human M4 receptors (Homo sapiens, UniProt P08173)
Construct: expressed in transfected cells
Assay: M4 PAM cAMP assay (GloSensor)
Format: cell-based
Conditions: HEK293 GloSensor cells expressing hM4; with EC20 acetylcholine and isoproterenol; Emax = maximum asymptote of fitted dose response curve; geometric mean of 2-4 determinations unless footnoted (b: >=5, c: single)

Worked examples follow.
1. CNc1nc(C)c(C)c2c1CN(C(=O)C[C@@H]1C[C@H]1c1ccc(F)cc1)C2 (single isomer, unassigned) [Example 41]    145^c %
2. CNc1nc(C)c(C)c2c1CN(C(=O)C[C@@H]1C[C@H]1c1ccc(F)cc1)C2 (single isomer, unassigned) [Example 40]    121^c %

Next molecule, EC50 Mean Asymptote Maximum (%) to be filled in.
Short answer on Human M4 receptors (Homo sapiens, UniProt P08173) for CNc1nc(C)c(C)c2c1CN(C(=O)C[C@@H]1C[C@H]1c1cncnc1)C2 (single isomer, unassigned) , EC50 Mean Asymptote Maximum (%): 95.1%

----------
Target: Human M4 receptors (Homo sapiens, UniProt P08173)
Construct: expressed in transfected cells
Assay: M4 PAM cAMP assay (GloSensor)
Format: cell-based
Conditions: HEK293 GloSensor cells expressing hM4; with EC20 acetylcholine and isoproterenol; Emax = maximum asymptote of fitted dose response curve; geometric mean of 2-4 determinations unless footnoted (b: >=5, c: single)
The following molecules are listed with their measured EC50 Mean Asymptote Maximum (%) values.

Here are 5 molecules together with their reported answers.
1) Cc1c2c(c(=O)n(C)c1C)CN(C(=O)C[C@@H]1C[C@H]1c1cccnc1)C2 (single isomer, unassigned)    95.3%
2) CNc1nc(C)c(C)c2c1CN(C(=O)C[C@@H]1C[C@H]1c1cccnc1)C2 (single isomer, unassigned)    94.8^b %
3) Cc1nc(N)c2c(c1C)CN(C(=O)C[C@@H]1C[C@H]1c1ccc(F)nc1)C2 (single isomer, unassigned)    111%
4) CNc1nc(C)c(C)c2c1CN(C(=O)CC1CN(c3ccnc(C(F)(F)F)c3)C1)C2C (single isomer, unassigned) [Example 43]    152^c %
5) CNc1nc(C)c(C)c2c1CN(C(=O)CC1CN(c3ccnc(C(F)(F)F)c3)C1)C2C (single isomer, unassigned) [Example 44]    107^c %

The measured EC50 Mean Asymptote Maximum (%) associated with CNc1nc(C)c(C)c2c1CN(C(=O)C[C@@H]1C[C@H]1c1ccc(F)nc1)C2 (single isomer, unassigned) [Example 16] reads 102^b %

----------
Biological target: Human M4 receptors (Homo sapiens)
Experiment: M4 PAM cAMP assay (GloSensor)
Conditions: HEK293 GloSensor cells expressing hM4; with EC20 acetylcholine and isoproterenol; geometric mean of 2-4 determinations unless footnoted (b: >=5, c: single)
pEC50: −log10 of the molar value.
reportedMetric: pEC50

A = Cc1nc(N(C)C)c2c(c1C)CN(C(=O)CC1CN(c3cccnc3)C1)C2
B = CNc1nc(C)c(C)c2c1CN(C(=O)C[C@@H]1C[C@H]1c1cncnc1)C2 (single isomer, unassigned) [Example 30]
// returns A or B , whichever has the lower pEC50 Refer to your chosen entry by its label in the reply.
A

1 = Cc1nc(C(F)F)c2c(c1C)CN(C(=O)CC1CN(c3cccnc3)C1)C2
2 = CNc1nc(C)c(C)c2c1CN(C(=O)CC1CN(c3ccnc(C#N)c3)C1)C2
3 = Cc1c2c(c(=O)n(C)c1C)CN(C(=O)C[C@@H]1C[C@H]1c1cccnc1)C2 (single isomer, unassigned) [Example 27]
4 = CNc1nc(C)c(C)c2c1CN(C(=O)CC1CN(c3cncnc3)C1)C2
Hi! Can you put these in order of pEC50, lowest number first? Note for the reader: the ranking is given by listing the labels in the order requested.
1, 3, 2, 4
(1: 7.63, 3: 8.00, 2: 8.26, 4: 8.91)

a = CNc1nc(C)c(C)c2c1CN(C(=O)CC1CN(c3ccnc(C(F)(F)F)c3)C1)C2C (racemic) [Example 42]
b = CNc1nc(C)c(C)c2c1CN(C(=O)OC1CN(c3cccnc3)C1)C2
Param metric = pEC50; output whichever of a , b has the minimum value. Write down the label attached to your selection.
a

I = CNc1nc(C)c(C)c2c1CN(C(=O)C[C@@H]1C[C@H]1c1ccc(F)cc1)C2 (single isomer, unassigned) [Example 40]
II = Cc1nc(N)c2c(c1C)CN(C(=O)C[C@@H]1C[C@H]1c1ccc(F)nc1)C2 (single isomer, unassigned) [Example 9]
III = CNc1nc(C)c(C)c2c1CN(C(=O)C[C@@H]1C[C@H]1c1ccc(F)cc1)C2 (single isomer, unassigned) [Example 41]
IV = CNc1nc(C)c(C)c2c1CN(C(=O)CCc1ccc(OC)cc1)C2
V = CNc1nc(C)c(C)c2c1CN(C(=O)CC1CN(c3ccnc(C(F)(F)F)c3)C1)C2
# rank by pEC50, ascending (min first) Note for the reader: the ranking is given by listing the labels in the order requested.
III, II, IV, I, V
(III: 6.11, II: 7.00, IV: 7.61, I: 8.17, V: 8.89)

a = Cc1nc(-c2cnn(C)c2)c2c(c1C)CN(C(=O)CC1CN(c3cccnc3)C1)C2
b = CNc1nc(C)c(C)c2c1CN(C(=O)C[C@@H]1C[C@H]1c1ccc(C)nc1)C2 (single isomer, unassigned) [Example 47]
c = Cc1nc(NCC2CC2)c2c(c1C)CN(C(=O)CC1CN(c3ccncn3)C1)C2
Put the entries in order of pEC50, starting with the largest number. Give me the labels in the order the question wants.
c, b, a
(c: 9.20, b: 8.69, a: 7.69)

a = Cc1nc(CN(C)C)c2c(c1C)CN(C(=O)CC1CN(c3cccnc3)C1)C2
b = Cc1nc(N)c2c(c1C)CN(C(=O)C[C@@H]1C[C@H]1c1ccc(F)nc1)C2 (relative stereo) [Example 7]
c = Cc1nc(N(C)C)c2c(c1C)CN(C(=O)CC1CN(c3cncnc3)C1)C2
Order these by pEC50, descending, and give the full ranking. I would appreciate it if you listed the labels in the requested order.
b, a, c
(b: 8.19, a: 7.73, c: 7.52)

1 = CNc1nc(C)c(C)c2c1CN(C(=O)CC1CN(c3ncns3)C1)C2
2 = CNc1nc(C)c(C)c2c1CN(C(=O)CCc1ccc(C#N)cc1)C2
Which value of pEC50 is numerically greater: that of 1 or that of 2 ? Reply briefly: the label of your chosen item.
1

P = CNc1nc(C)c(C)c2c1CN(C(=O)C[C@@H]1C[C@H]1c1ccc(Cl)nc1)C2 (racemic)
Q = CNc1nc(C)c(C)c2c1CN(C(=O)C1CC1)C2
R = Cc1c2c(c(=O)n(C)c1C)CN(C(=O)C[C@@H]1C[C@H]1c1cccnc1)C2 (single isomer, unassigned) [Example 26]
S = CNc1nc(C)c(C)c2c1CN(C(=O)CC1Cc3ccc(F)cc3C1)C2 (single isomer, unassigned)
Sort entries by pEC50 from minimum to maximum value. A complete answer lists every label in the requested sequence.
R, Q, S, P
(R: 5.67, Q: 7.02, S: 7.51, P: 8.27)

----------
Biological target: Human M4 receptors (Homo sapiens, UniProt P08173)
Experiment: M4 PAM cAMP assay (GloSensor)
Conditions: HEK293 GloSensor cells expressing hM4; with EC20 acetylcholine and isoproterenol; geometric mean of 2-4 determinations unless footnoted (b: >=5, c: single)
pEC50: −log10 of the molar value.
reportedMetric: pEC50

Below, each entry is followed by its recorded pEC50 result.
1. CNc1nc(C)c(C)c2c1CN(C(=O)CC1CN(c3ccnc(C)c3)C1)C2    7.87
2. CNc1nc(C)c(C)c2c1CN(C(=O)C[C@@H]1C[C@H]1c1ccc(C)nc1)C2 (racemic) [Example 45]    8.45
3. CNc1nc(C)c(C)c2c1CN(C(=O)CC1CN(c3ccnc(C(F)(F)F)c3)C1)C2C (single isomer, unassigned) [Example 44]    8.74
4. Cc1c2c(c(=O)n(C)c1C)CN(C(=O)CC1CN(c3ccnc(C(F)(F)F)c3)C1)C2    8.08
5. CNc1nc(C)c(C)c2c1CN(C(=O)CC1CN(c3ccc(F)nc3)C1)C2    8.49

P = CNc1nc(C)c(C)c2c1CN(C(=O)C[C@@H]1C[C@H]1c1ccc(F)nc1)C2 (single isomer, unassigned) [Example 15]
Q = Cc1[nH]c(=O)c2c(c1C)CN(C(=O)CC1CN(c3cccnc3)C1)C2
Smaller pEC50 value? Options are P and Q Pick one; state its label.
P

1 = COc1nc(C)c(C)c2c1CN(C(=O)CC1CN(c3cccnc3)C1)C2
2 = CNc1nc(C)c(C)c2c1CN(C(=O)C[C@@H]1C[C@H]1c1cccnc1)C2 (single isomer, unassigned) [Example 10]
3 = CNc1nc(C)c(C)c2c1CN(C(=O)CC1CN(c3ccnc(C(F)(F)F)c3)C1)C2C (single isomer, unassigned) [Example 43]
4 = CNc1nc(C)c(C)c2c1CN(C(=O)c1cnn(C)c1)C2
Reorder: pEC50, max to min. // respond by listing labels in the order requested
4, 1, 2, 3
(4: 8.07, 1: 7.36, 2: 6.71, 3: 5.44)
